- STUDY TARGET: glutathione-S-transferase (GST) tagged LXRalpha LBD (ligand binding domain) (Homo sapiens, UniProt Q13133)
- Construct: purchased Invitrogen pv4655
- Sequence (Q13133 209-447 limits assumed): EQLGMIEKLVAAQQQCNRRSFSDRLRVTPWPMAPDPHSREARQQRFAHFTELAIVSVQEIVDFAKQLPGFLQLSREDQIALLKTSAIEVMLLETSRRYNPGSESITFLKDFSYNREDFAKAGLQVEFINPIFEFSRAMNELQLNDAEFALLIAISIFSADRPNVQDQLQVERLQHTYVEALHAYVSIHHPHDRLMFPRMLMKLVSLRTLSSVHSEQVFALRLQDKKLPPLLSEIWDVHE
- EXPERIMENT DESCRIPTION: biochemical
- TEST CONTEXT: potency (Inflection Point), compound-induced co-activator recruitment, TR-FRET
ENDPOINT NAME: LXR alpha IP

Some solved entries appear below for comparison.
COMPOUND	ENDPOINT NAME	RESULT
CC(C)N(C)C(=O)c1ccc(OCCCCC2CCN(C(=O)[C@](O)(c3ccccc3)C(F)(F)F)CC2)cc1Cl (single isomer, unassigned)	LXR alpha IP	No IP
Cc1nc(OC2CCC3(CC2)CCN(C(=O)C(O)(c2cccc(OC4CC4)c2)C(F)(F)F)CC3)ccc1C(=O)N(C)C (single isomer, unassigned)	LXR alpha IP	No IP
COc1ccccc1[C@@](O)(C(=O)N1CCC2(CC1)C[C@H]2CCCOc1ccc(C(=O)N(C)C)c(Cl)c1)C(F)(F)F (single isomer, unassigned)	LXR alpha IP	No IP
COc1cccc([C@@](O)(C(=O)N2CCC(C[C@H]3C[C@@H](Oc4ccc(C(=O)N(C)C)c(Cl)c4)C3)CC2)C(F)F)c1 (single isomer, unassigned)	LXR alpha IP	No IP

Asked: Form field: reported LXR alpha IP of COc1cccc([C@](O)(C(=O)N2CCC(CC[C@H](C)COc3ccc(C(=O)N(C)C)c(Cl)c3)CC2)C(F)(F)F)c1 (single isomer, unassigned)
Given back: No IP

Asked: Form field: reported LXR alpha IP of `O=C(c1cscn1)N1CCC(CCCCOc2ccc(C(=O)N3CCCC3)c(Cl)c2)CC1`
Given back: No IP

Asked: Form field: reported LXR alpha IP of CN(C)C(=O)c1ccc(OCCC2CC23CCN(C(=O)C(C)(C)c2cccc(Br)n2)CC3)cc1Cl (single isomer, unassigned)
Given back: No IP

Asked: Form field: reported LXR alpha IP of COc1cccc(C(O)(C(=O)N2CCC3(CCC3CCCOc3ccc(C(=O)N(C)C)c(Cl)c3)CC2)C(F)(F)F)c1 (single isomer, unassigned)
Given back: No IP
